Measured IC50 by item
target: CDK4/Cyclin D1 (Homo sapiens (Human), UniProt P11802); experiment: Biochemical kinase inhibition test, CDK4/Cyclin D1 (32P-ATP, Rb substrate); settings: recombinant CDK4/Cyclin D1; 10 μM ATP; read-out: CDK4/Cydin D1 IC50
Sequence (P11802 whole entry): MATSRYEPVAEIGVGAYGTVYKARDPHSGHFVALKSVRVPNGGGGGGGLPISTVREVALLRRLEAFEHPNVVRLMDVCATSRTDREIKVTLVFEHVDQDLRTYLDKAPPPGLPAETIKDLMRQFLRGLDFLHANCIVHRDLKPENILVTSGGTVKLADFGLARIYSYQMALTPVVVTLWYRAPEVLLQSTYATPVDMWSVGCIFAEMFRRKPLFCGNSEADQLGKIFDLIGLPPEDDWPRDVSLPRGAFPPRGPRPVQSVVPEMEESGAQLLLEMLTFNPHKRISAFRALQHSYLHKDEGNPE
Sequence (P24385 whole entry partner): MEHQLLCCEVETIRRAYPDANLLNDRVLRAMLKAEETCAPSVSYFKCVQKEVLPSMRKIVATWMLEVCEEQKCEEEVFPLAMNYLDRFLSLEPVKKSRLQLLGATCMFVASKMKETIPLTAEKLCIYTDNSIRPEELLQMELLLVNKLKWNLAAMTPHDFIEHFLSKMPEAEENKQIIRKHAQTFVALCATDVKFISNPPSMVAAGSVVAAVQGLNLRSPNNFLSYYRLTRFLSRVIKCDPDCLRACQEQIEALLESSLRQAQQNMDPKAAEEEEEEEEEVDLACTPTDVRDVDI

Task: Value lookup for IC50; key = `COc1cc(OC2CCN(C)CC2)ccc1Nc1ncc2ccc3ncc(C(C)C)n3c2n1`
Result: 50 to 100 nM

Task: For the compound shown here, `Cc1nc(Nc2ncc3ccc4ncc(C(C)C)n4c3n2)ccc1N1CCOCC1` , give the reported IC50.
Result: 5 to 10 nM

Task: I have this compound here, `COc1ccc2cc(Nc3ncc4ccc5ncc(C(C)C)n5c4n3)ccc2n1` , and I need its recorded IC50.
Result: 50 to 100 nM

Others:
Task: // query IC50 value for entry `CC(C)c1cnc2ccc3cnc(Nc4ccc(N5CCNCC5)c(F)n4)nc3n12.Cl`
Result: 20 to 50 nM

Task: Looking for the measured IC50 of `CCN1CCN(c2ccc(Nc3ncc4ccc5ncc(C(C)C)n5c4n3)nc2)CC1` , can you help?
Result: < 1 nM

Task: Name the recorded IC50 for `C[C@@H]1CN(c2ccc(Nc3ncc4ccc5ncc(C6CCCC6)n5c4n3)nc2)C[C@H](C)N1` .
Result: 5 to 10 nM

Task: # lookup: IC50 of `CC(C)c1cnc2ccc3cnc(Nc4ccc(N5C[C@@H](C)O[C@@H](C)C5)cn4)nc3n12`
Result: 20 to 50 nM

Task: Requested read-out: IC50. Entry: CC1CN(c2ccc(Nc3ncc4ccc5ncc(C(C)C)n5c4n3)nc2)CCO1 (centres unmarked)
Result: 5 to 10 nM
